Target: subtype of muscarinic receptors (M1-site, pirenzepine sensitive site), rat cerebral cortex membranes (Rattus norvegicus, UniProt P08482)
Construct: Fresh cortex (0.1-1 g) from male Wistar rats (150-200 g) is homogenized; from tissue; host or cells: fresh cerebral cortex membranes of male Wistar rats
Sequence (P08482 whole entry): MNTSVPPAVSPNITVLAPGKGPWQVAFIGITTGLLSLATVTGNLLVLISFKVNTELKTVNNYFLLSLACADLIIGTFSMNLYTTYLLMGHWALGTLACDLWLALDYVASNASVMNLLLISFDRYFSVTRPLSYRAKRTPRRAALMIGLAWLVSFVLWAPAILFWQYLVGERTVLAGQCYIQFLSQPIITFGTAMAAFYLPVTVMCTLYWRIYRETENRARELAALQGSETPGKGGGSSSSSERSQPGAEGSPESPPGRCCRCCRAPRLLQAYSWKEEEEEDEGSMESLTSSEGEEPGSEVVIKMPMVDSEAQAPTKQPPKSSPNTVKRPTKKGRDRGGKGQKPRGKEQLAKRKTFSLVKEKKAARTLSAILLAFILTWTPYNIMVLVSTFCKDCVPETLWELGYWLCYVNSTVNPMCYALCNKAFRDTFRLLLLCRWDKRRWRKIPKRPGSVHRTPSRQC
Assay: inhibition of ^3 H-PRZ (pirenzepine, [N-methyl-^3 H]) binding to rat cerebral cortex membranes
Set-up: species or system rat (male Wistar)
RECORDED_ENDPOINT: pIC50
# reply with the number alone; pIC50 is -log10 of concentration in mol/L

Give reported pIC50 value for `CCCSc1nsnc1C12CN3CC1C2C3` 7.00

* * *

# pIC50 per record follows
Molecular target: muscarinic acetylcholine receptors
Test: inhibition of specific binding of ^3 H-Oxotremorine-M (^3 H-Oxo), fresh rat cortex
Conditions: ^3 H-Oxotremorine 1.0 nM, 30 min at 25° C, pH 7.4
Counter-ions that a name gives are not always drawn.
For clarity, pIC50 is expressed as the negative log10 of concentration in mol/L.

{"MOLECULE": "C(#Cc1cccnc1)COc1nsnc1C12CN3CC1C2C3 [Compound 11]", "REPORTED_VALUE": 8.22}
{"MOLECULE": "C(#Cc1ccsc1)COc1nsnc1C12CN3CC1C2C3 [Compound 8]", "REPORTED_VALUE": 8.06}
{"MOLECULE": "C(#Cc1cccs1)COc1nsnc1C12CN3CC1C2C3 [Compound 9]", "REPORTED_VALUE": 7.82}
{"MOLECULE": "N#Cc1ccc(CSc2nsnc2C23CN4CC2C3C4)cc1 [Compound 4]", "REPORTED_VALUE": 7.39}
{"MOLECULE": "FC(F)(F)CCSc1nsnc1C12CN3CC1C2C3 [Compound 3]", "REPORTED_VALUE": 7.85}

Item Fc1ccc(C#CCOc2nsnc2C23CN4CC2C3C4)cc1 [Compound 6] : provide pIC50 7.77

Return pIC50 for the following molecule: COc1cccc(C#CCOc2nsnc2C23CN4CC2C3C4)c1 [Compound 10, hydrochloride] 7.60

Please report pIC50 for the following molecule: C(#Cc1ccccc1)COc1nsnc1C12CN3CC1C2C3 [Compound 7] 7.59

Input CCCSc1nsnc1C12CN3CC1C2C3 [Compound 2] , output reported pIC50. 8.37
